// provenance: the supplement of paper PMC12764529

Experiment: folding stability dG unfold from trypsin proteolysis; higher = more stable
# cutoff 10 kJ/mol applies to folding stability dG unfold; >= gives Yes, < gives No

Field: example entries. Status: answers known.
[[record]]
record_sequence = "SMLLIKITVKNPDGEEKEIVLSAEELRKLFEEETGEEYSLEEIAERLKKLFPNAKVEIVPLEELSEEELKSA [r9_1085_TrROS_Hall]"
group = "Yes"

[[record]]
record_sequence = "SAMTVELTLPSEELVEKIKELLPSYVKIEKVEVDEETKTVTVTVSFDPNLSPEEQQAVVEKIKKLIEEKSAG [r14_306_JUSTAS]"
group = "Yes"

[[record]]
record_sequence = "SAGGSKKVKIKITKIEIFPNGTIKVTVKNEDGSEVTITITKNKDGKYKIKIKNKKTKKIFEFEIPLSAGGSA [r2_361_TrROS_Hall]"
group = "No"


Task: Record SAGSLKPSDLVLLRSRPVRVGGKPVVLVDLVVFHPDGSASRAVLTLPSGVGPPVVGVVPVPALVRLIASSAG [r5_831_TrMRF] ; criterion: folding stability dG unfold no lower than 10 kJ/mol. Met?
Result: No

Task: Record SMMIKVKITITNEKGEEVEIEIVASPEEIEEALRKLLPPGAKVEIEKIEFYPLEELKPGDVIKITVRVKPSA [r9_803_TrROS_Hall] ; criterion: folding stability dG unfold no lower than 10 kJ/mol. Met?
Result: Yes

Task: Record SAGGSERTIMIPVEPGMSPEQIADEIKAILRELGPGRPIEIDDVHPGGWVKIKINNKPIKIHIMWPSAGGSA [r2_102_TrROS] ; criterion: folding stability dG unfold no lower than 10 kJ/mol. Met?
Result: No

Task: Record SAGGSAGGSKFEITEVSVELVEVDGKLYLKVSMTIKNEDGSTYKISLVYDLENNELYLSIEKVSAGGSAGGS [r12_1035_TrROS_Hall] ; criterion: folding stability dG unfold no lower than 10 kJ/mol. Met?
Result: Yes

---

Listed here: items and their measured folding stability dG unfold.
Assay: folding stability dG unfold (combined trypsin and chymotrypsin); higher = more stable

[[record]]
record_sequence = "SAGGMVEREFTLDGTRITITYVPSEGVILATFPDRTVTVPVPESLKDKSPEEVIELAKEFAKEYLESSAGGS [r16_215_JUSTAS]"
recorded_value = "3.43 kcal/mol"


Task: Any idea what folding stability dG unfold was measured for SAGGMKPGAPVEIEFPIPGIPPGRRFRIMIHYPNGKHVEAEYTDNTIKIEIPVPDGDNIHHIYIYFYSAGGS [r16_179_TrROS] ?
Result: 3.86 kcal/mol

Task: Any idea what folding stability dG unfold was measured for SAGGSAGGSAGGMYRIKVTTKDGRERVIEVKPGEEITLEELRKAGLSEEEIERVEIEEVSAGGSAGGSAGGS [r10_565_TrROS_Hall] ?
Result: 1.84 kcal/mol

Task: Any idea what folding stability dG unfold was measured for SAGASLAPGESAAFTVTTTTTTTESLPLPDGTTVTTTSTTTTTTAHTVTFPAVPVVTMPPDATDPAVRASAG [r5_770_JUSTAS] ?
Result: < -1 kcal/mol

Task: Any idea what folding stability dG unfold was measured for SAGGSAGGSGKPLLLVRLKIRNKETGEEETVVLEADSLDEALARLPPGAEIVSIEVVRLDLPPSAGGSAGGS [r12_208_TrROS_Hall] ?
Result: 5.34 kcal/mol

Task: Any idea what folding stability dG unfold was measured for SAGGMTKTILIYDEETGVLVRIEIKVNPETGEIEEIKIETETLEDGTVKMKITLKDGTEIEVEIKPLPSAGG [r13_515_TrROS_Hall] ?
Result: 3.25 kcal/mol

Task: Any idea what folding stability dG unfold was measured for SAGGMEKIEIEVENEDGEKVKIEIYFDEETGFIVVKIEGENPELIDALKKKLGLEIVEKREDGYLVFKSAGG [r13_937_TrROS_Hall] ?
Result: 3.48 kcal/mol

---

Test: folding stability dG unfold (combined trypsin and chymotrypsin); higher = more stable
Endpoint Name: folding stability dG unfold (kcal/mol)
Expressed in kcal/mol, but write only the number.

[[record]]
record_sequence = "SIRGMPPEVVLYIIRFFAREQKNKGMPPDDRPIEINIMMPNPEARKDAKKEIKEENPGIKDVKIEVMPPNSA [r9_341_TrROS]"
endpoint_name = "folding stability dG unfold"
recorded_value = 2.61

[[record]]
record_sequence = "SAGGSAGGSAPIKITEHTYNPGDGMVWATAEAEDPNGWKIKLTIWFFPDGNIQIEITEIVPSAGGSAGGSAG [r3_7_TrROS]"
endpoint_name = "folding stability dG unfold"
recorded_value = 3.83


Lab note: next sequence to report on.
Task: Any idea what folding stability dG unfold was measured for SAGGSEEEIKKKIEEIAKKRGTKIKSITIKKLPDGSLLATVTLEDNPNTTIEFKVEKNKVEITKINKSAGGS [r8_432_JUSTAS] ?
Result: 2.61

---

Assay: folding stability dG unfold from trypsin proteolysis; higher = more stable
Listed here: items and their measured folding stability dG unfold.
Expressed in kcal/mol, but write only the number.

[[record]]
record_sequence = "SAGGMEVTFPVSPDLSPEEVRARIEAEIRPIAEARGAVDVEVPIVEYRRLPPDSVEFRFKVTVRFPRSAGGS [r8_184_JUSTAS]"
endpoint_name = "folding stability dG unfold"
quantity_unit = "kcal/mol"
recorded_value = 1.94

[[record]]
record_sequence = "SAGGSAGGSAGIDPPDIKLRVESELGPGPVRRLLVYLEGPGELVLVDVPADGSVSVSIFPSAGGSAGGSAGG [r11_55_TrMRF]"
endpoint_name = "folding stability dG unfold"
quantity_unit = "kcal/mol"
recorded_value = 2.85

[[record]]
record_sequence = "SAGGSAGGSSSYSVPDSSSVTLETTVTITFPSSSVGGSPASSGPVAFTVPVKVTVSVTNPGVASAGGSAGGS [r12_668_JUSTAS]"
endpoint_name = "folding stability dG unfold"
quantity_unit = "kcal/mol"
recorded_value = 1.18

[[record]]
record_sequence = "SAGGSAKMKITVEKNEDGELYVLIEVDSVEELEEALKKLPGIEKVEVEVFVDEETKRVYILVRVKPSAGGSA [r15_344_TrROS_Hall]"
endpoint_name = "folding stability dG unfold"
quantity_unit = "kcal/mol"
recorded_value = 2.36

[[record]]
record_sequence = "SAELPPGMRLVIDDIEPMRNNGKPMLMIKLSIYDPAKPGKEITHWTIMVTNDNIMAIQPTTYRIPPDDISAG [r14_651_TrROS]"
endpoint_name = "folding stability dG unfold"
quantity_unit = "kcal/mol"
recorded_value = 2.64

[[record]]
record_sequence = "SAGVDGVKWNPESNEVSVEYEVNNQRVEQYIEPKPIPPVIVIPIDDIAERNPGLKDDLDENPGDWLVFPSAG [r5_958_TrROS]"
endpoint_name = "folding stability dG unfold"
quantity_unit = "kcal/mol"
recorded_value = 0.79


Task: Any idea what folding stability dG unfold was measured for SAGGSAGGSAGGMIKIKLGDKWVDVAEVKEYPDSIIVYNPKTNTKITISKKNPEDPNILISAGGSAGGSAGG [r7_391_JUSTAS] ?
Result: 0.463

---

Experiment: folding stability dG unfold from trypsin proteolysis; higher = more stable
# label = bin(measured folding stability dG unfold), where bins are lower range = under 0.3 kcal/mol, middle range = from 0.3 kcal/mol up to 3 kcal/mol, upper range = 3 kcal/mol and over

Field: example entries. Status: answers known.
[[record]]
record_sequence = "SAGGSAGGSAGGTKVIPFDSVEEILEEVKKDPNKPRYIRMPGAWIKINKPGDITEIEPWPSAGGSAGGSAGG [r7_532_TrROS]"
group = "lower range"

[[record]]
record_sequence = "SAGGSAGGSAGDDGDKKPEVKVKVKIEPTIIPSPNGELMLMWTLEIEYPGNGEKREFTFMSAGGSAGGSAGG [r17_59_TrROS]"
group = "middle range"

[[record]]
record_sequence = "SAGGSAGGSKTVYRITIYNEKTGKKLVIEIEESMSEEEKEQKIKDLLKKLLPPGAKIKIEKVPSAGGSAGGS [r20_213_TrROS_Hall]"
group = "upper range"

[[record]]
record_sequence = "SVFEMPIKLTLKRRDPDGKGRKVKVTIRIRFEMPPNLPPDDKNDPERRKMHQMMHSNMHERAESLADPLASA [r9_237_TrROS]"
group = "middle range"


Task: Please let me know in which category the item SEKLTEEEVEKLAEELAKELEEETGKKVTVEVEVEKVEVEKDGEKEEVEVVRIKITVDPETGEVTIEVEPSA [r9_9_TrROS_Hall] belongs.
Result: middle range

Task: Please let me know in which category the item SAGGSAGGSAGGSGVSITTTLPVKTTVLQPFNTFENKLLLKEVEKTILTTVTLTLPPLLSAGGSAGGSAGGS [r4_326_JUSTAS] belongs.
Result: middle range

Task: Please let me know in which category the item SAGGSAKWLPAEELADELADTLMQRHGYEIKNVDVEVIDPDEGYIRVNIEYEHPGGRHKHDIIIPVSAGGSA [r15_32_TrROS] belongs.
Result: lower range

Task: Please let me know in which category the item SAGGSAGGSAGMSPNIVSYETVESDKNGNIIKKTTYLYSDNTIITETFSPKKKKKIQTFSKESAGGSAGGSA [r18_302_JUSTAS] belongs.
Result: lower range
